B1: IMPA1 (parent)
chain: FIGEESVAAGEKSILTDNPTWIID

Variants of: B1
test-method-notes: protein stability index of a GFP-peptide fusion (GPS, HEK-293T) (PSI 1-6); higher = more stable;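 further: lentivirally expressed fusions sorted by FACS into six bins by GFP to DsRed ratio, PSI derived from sequencing read proportions per bin multiplied by bin number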
experimental-parameters: c terminus: a fixed tail appended
Each record here notes measured protein stability index.
Give the figure by itself; no unit, no explanation.

[
  {
    "mutation-name": "D24F",
    "protein stability index": 2.2
  },
  {
    "mutation-name": "P19D",
    "protein stability index": 3.09
  },
  {
    "mutation-name": "K12Y",
    "protein stability index": 2.35
  }
]

// query Look up protein stability index: `K12A`
// result 2.25

// query Look up protein stability index: `P19R`
// result 1.96

// query Look up protein stability index: `D24G`
// result 2.44

// query Look up protein stability index: `L15D`
// result 2.83

// query Look up protein stability index: `A8I`
// result 1.58

// query Look up protein stability index: `F1M`
// result 4.6

// query Look up protein stability index: `I14K`
// result 2.54

// query Look up protein stability index: `L15T`
// result 2.33

// query Look up protein stability index: `V7Q`
// result 2.19

// query Look up protein stability index: `S13V`
// result 2.47

// query Look up protein stability index: `W21Y`
// result 3.96

// query Look up protein stability index: `I22D`
// result 4.58

// query Look up protein stability index: `K12T`
// result 2.32

// query Look up protein stability index: `W21Q`
// result 4.65

These entries and their values trace back to the supplement of paper PMC10567573.
